# credit: paper PMC8998355

Target: ABCB1 (Homo sapiens)
Construct: expressed in transfected cells; host or cells: L5178Y mouse T-cell lymphoma cells transfected with pHa MDR1/A retrovirus, selected with colchicine (L5178YMDR)
Experiment: ABCB1 inhibition assay (rhodamine 123 accumulation, flow cytometry)
Format: cell-based
Details: human, probe rhodamine 123 (5.2 µM), concentration not given; read-out: direct ABCB1 inhibition
ENDPOINT_NAME: inhibition at 20 min

Query: Read the entry CC(=O)O[C@H]1C[C@]2(C)C3=CC[C@@]4(C)C(=CC[C@@H]4[C@@]4(C)OC(C)(C)O[C@@H]4CCC(C)(C)O)C3=C(O)C(=O)[C@@]23C[C@@H]13 and write its reported inhibition at 20 min.
Result: ~50%

---

# key: entry, value: CI at ED90
Test system: L5178YMDR cells
Assay: Combination assay with doxorubicin (checkerboard microplate method, MTT)
Type: cell-based, mouse
Settings: drug ratio 92.8:1, with doxorubicin
// return a plain number; no unit text

Example results:
| SMILES_REPR | CI at ED90 |
| --- | --- |
| CC(=O)[C@H]1CC[C@@]2(F)C3=CC(=O)[C@@H]4C[C@H]5OC(C)(C)O[C@H]5C[C@]4(C)[C@H]3CC[C@]12C | 0.38 |
| CC(=O)N[C@H]1CC=C2C3=CC(=O)[C@@H]4C[C@H]5OC(C)(C)O[C@H]5C[C@]4(C)[C@H]3CC[C@@]21C | 0.47 |
| CC(=O)[C@H]1CC=C2C3=CC(=O)[C@@H]4C[C@H]5OC(C)(C)O[C@H]5C[C@]4(C)[C@H]3CC[C@@]21C | 0.35 |

Next item in the queue.
Query: GET CI at ED90 where system = L5178YMDR cells and item = CC(=O)N[C@H]1CC[C@@]2(F)C3=CC(=O)[C@@H]4C[C@H]5OC(C)(C)O[C@H]5C[C@]4(C)[C@H]3CC[C@]12C
Result: 0.74

---

System: L5178YMDR cells
Experiment: Combination assay with doxorubicin (checkerboard microplate method, MTT)
Format: cell-based, mouse
Settings: drug ratio 23.2:1, with doxorubicin
ENDPOINT_NAME: CI at ED75
// return a plain number; no unit text

Example results:
| SMILES_REPR | CI at ED75 |
| --- | --- |
| CC(=O)[C@H]1CC[C@@]2(F)C3=CC(=O)[C@@H]4C[C@H]5OC(C)(C)O[C@H]5C[C@]4(C)[C@H]3CC[C@]12C | 0.56 |
| CC(=O)N[C@H]1CC=C2C3=CC(=O)[C@@H]4C[C@H]5OC(C)(C)O[C@H]5C[C@]4(C)[C@H]3CC[C@@]21C | 0.55 |
| CC(=O)N[C@H]1CC[C@@]2(F)C3=CC(=O)[C@@H]4C[C@H]5OC(C)(C)O[C@H]5C[C@]4(C)[C@H]3CC[C@]12C | 0.73 |

Query: Read the entry CC(=O)[C@H]1CC=C2C3=CC(=O)[C@@H]4C[C@H]5OC(C)(C)O[C@H]5C[C@]4(C)[C@H]3CC[C@@]21C and write its reported CI at ED75.
Result: 0.50

---

Tested on: L5178Y mouse T-cell lymphoma cells
Experiment: MTT antiproliferative assay (72 h, 6 × 10^3 cells)
Format: cell-based
Conditions: Mus musculus; text summary for both lymphoma cell lines (L5178Y and L5178YMDR); read-out: antiproliferative activity on the lymphoma cell lines (IC50)
ENDPOINT_NAME: IC50

Query: Read the entry CC(=O)N[C@H]1CC=C2C3=CC(=O)[C@@H]4C[C@H]5OC(C)(C)O[C@H]5C[C@]4(C)[C@H]3CC[C@@]21C [Compound 13] and write its reported IC50.
Result: ~4.7 µM
